Please go through the items and note down their pIC50.
- tested-target: PDE2 (Bos taurus, UniProt P14099)
- Construct: PDE2 was prepared from bovine endothelial cells by the same methods; endogenous in cells; host or cells: bovine endothelial cells
- Sequence (P14099 whole entry): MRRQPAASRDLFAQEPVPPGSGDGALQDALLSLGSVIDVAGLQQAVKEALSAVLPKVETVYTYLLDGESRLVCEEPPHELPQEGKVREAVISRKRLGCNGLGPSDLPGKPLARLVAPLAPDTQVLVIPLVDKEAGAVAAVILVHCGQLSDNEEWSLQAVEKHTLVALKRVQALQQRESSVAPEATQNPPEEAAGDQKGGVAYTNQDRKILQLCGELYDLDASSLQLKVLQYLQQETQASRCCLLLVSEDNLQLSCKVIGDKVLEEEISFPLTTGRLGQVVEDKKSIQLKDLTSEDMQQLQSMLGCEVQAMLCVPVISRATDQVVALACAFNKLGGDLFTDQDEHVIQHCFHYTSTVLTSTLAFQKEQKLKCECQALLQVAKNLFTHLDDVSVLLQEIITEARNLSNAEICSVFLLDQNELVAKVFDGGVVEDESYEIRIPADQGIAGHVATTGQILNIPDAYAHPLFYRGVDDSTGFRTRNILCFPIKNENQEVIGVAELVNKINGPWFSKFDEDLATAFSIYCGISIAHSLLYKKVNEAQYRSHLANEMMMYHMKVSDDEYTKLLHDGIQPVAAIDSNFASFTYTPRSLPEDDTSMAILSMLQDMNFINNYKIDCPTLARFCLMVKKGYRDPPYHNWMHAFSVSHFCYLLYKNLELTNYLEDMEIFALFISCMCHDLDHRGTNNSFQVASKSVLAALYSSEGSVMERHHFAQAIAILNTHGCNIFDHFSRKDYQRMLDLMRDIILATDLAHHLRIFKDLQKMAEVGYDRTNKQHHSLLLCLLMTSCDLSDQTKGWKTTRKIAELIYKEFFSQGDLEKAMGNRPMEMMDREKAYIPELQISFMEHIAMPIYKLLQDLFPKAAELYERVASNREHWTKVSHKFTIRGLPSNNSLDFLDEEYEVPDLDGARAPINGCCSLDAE
- procedure-text: Inhibition of PDE2, radioenzymatic phosphodiesterase assay
- Assay type: biochemical, bovine
// returns pIC50 (minus log10 of molar concentration), number only

Query :: Quick one: pIC50 for COc1cc2c(cc1OC)N(C)C(=O)CN=C2c1cccc(CN)c1 [Compound 8a] ?
Result :: 5.05

Query :: // next record CCN1C(=O)CN=C(c2cccc(C(N)=O)c2)c2cc(OC)c(OC)cc21 [Compound 5g]
Result :: 4.61

Query :: Could you do the same for COc1cccc2c1C(c1cccc(C#N)c1)=NCC(=O)N2 [Compound 28b] , please?
Result :: 4.06

Query :: Entry to check: COc1cc2c(cc1OC)N(C)C(=O)CN=C2c1cccc(-c2ccc(Cl)cc2)c1 [Compound 6j]
Result :: 6.15

Query :: Can you handle COc1cc2c(cc1OC)C(c1cccc(C(N)=O)c1)=NCC(=O)N2 [Compound 5e] next?
Result :: 5.18

Query :: Would you kindly repeat that for CCN1C(=O)C(Cc2ccc(Cl)c(Cl)c2)N=C(c2ccccc2)c2cc(OC)c(OC)cc21 (centres unmarked) [Compound 7a] ?
Result :: 5.50

Query :: Likewise for COc1cc2c(cc1OC)N(C)C(=O)CN=C2c1cccc(C#N)c1 [Compound 4a] ?
Result :: 5.17

Query :: CCCCCCc1cccc(C2=NCC(=O)N(C)c3cc(OC)c(OC)cc32)c1 [Compound 6e] ?
Result :: 6.44

Query :: Same thing, different molecule: COc1cc2c(cc1OC)N(C)C(=O)CN=C2c1cccc(C#CCNC(=O)OC(C)(C)C)c1 [Compound 6a]
Result :: 5.08

Query :: Similarly, COc1cc2c(cc1OC)N(C)C(=O)CN=C2c1cccc(C(F)(F)F)c1 [Compound 4p] ?
Result :: 5.74

Query :: Also check COc1ccc2c(c1)NC(=O)CN=C2c1cccc(C#N)c1 [Compound 28a]
Result :: 4.19

----------
- tested-target: PDE2 (Bos taurus, UniProt P14099)
- Construct: PDE2 was prepared from bovine endothelial cells by the same methods; endogenous in cells; host or cells: bovine endothelial cells
- procedure-text: Inhibition of PDE2, radioenzymatic phosphodiesterase assay
- Assay type: biochemical, bovine
Where a name gives a salt, the structure may show the parent alone.
Kindly apply the following: yes (1) if IC50 is less than 3 µM, no (0) in every other case.

Query :: Decide: IC50 of COc1cc2c(cc1OC)N(C)C(=O)C(Cc1ccc(Cl)c(Cl)c1)N=C2c1cccc(C#N)c1 (centres unmarked) [Compound 7b] strictly below 3 µM?
Result :: no (0)

Query :: Same question, COc1cc2c(cc1OC)N(C)C(=O)CN=C2c1cccc(C(=O)NCc2ccccc2)c1 [Compound 36b] this time
Result :: no (0)

Query :: Next compound: COc1cc2c(cc1OC)N(C)C(=O)CN=C2c1cccc(C)c1 [Compound 17k]
Result :: no (0)

Query :: Again, but for COc1cc2c(c(Br)c1OC)C(c1cccc(C#N)c1)=NCC(=O)N2C [Compound 24b]
Result :: no (0)

Query :: Same lookup for COc1cc2c(cc1OC)N(C)C(=O)CN=C2c1cccc(C#CCCCC#N)c1 [Compound 6d] , please.
Result :: yes (1)

Query :: Thanks! And CCCN1C(=O)CN=C(c2cccc(C(N)=O)c2)c2cc(OC)c(OC)cc21 [Compound 5f] ?
Result :: no (0)

Query :: Entry COc1cc2c(cc1OC)N(Cc1ccccc1)C(=O)CN=C2c1cccc(C#N)c1 [Compound 4m] please
Result :: yes (1)

Query :: Same read-out for COc1cc2c(cc1OC)N(C)C(=O)CN=C2c1cccc(CNCc2ccccc2)c1 [Compound 17m, hydrochloride] ?
Result :: no (0)

Query :: Input COc1cc2c(cc1OC)N(C)C(=O)CN=C2c1ccc(Cl)c(Cl)c1 [Compound 17j]
Result :: no (0)

Query :: Follow-up item: COc1cc2c(cc1OC)N(C)C(=O)CN=C2c1cccc(C(N)=O)c1 [Compound 5a]
Result :: yes (1)

Query :: Moving on to the next compound: CCOC(=O)CN1C(=O)CN=C(c2cccc(C#N)c2)c2cc(OC)c(OC)cc21 [Compound 4n]
Result :: no (0)

Query :: Okay, and COc1ccc2c(c1)N(C)C(=O)CN=C2c1cccc(C#N)c1 [Compound 29a] ?
Result :: no (0)

Query :: Input COC(=O)c1cccc(C2=NCC(=O)N(C)c3cc(OC)c(OC)cc32)c1 [Compound 34a]
Result :: yes (1)

Query :: Quick one: COc1cc2c(cc1OC)N(C)C(=O)CN=C2c1cccnc1 [Compound 17b]
Result :: yes (1)

Query :: Moving on to the next compound: COc1cc2c(cc1OC)N(C)C(=O)CN=C2c1cccc(C#CCN2CCCCC2)c1 [Compound 6c]
Result :: no (0)

Query :: Proceed to COc1cc2c(cc1OC)N(C)C(=O)CN=C2c1cccc(C(=O)NCCCc2ccccc2)c1 [Compound 36f]
Result :: yes (1)

Query :: Query COc1cc2c(cc1OC)N(C)C(=O)CN=C2c1cccc(C=O)c1 [Compound 17l] next
Result :: no (0)

Source: patent US20060128695A1
